Values were extracted from ChEMBL document CHEMBL4033785.

- TGT: Metabotropic glutamate receptor 7 (Homo sapiens, UniProt Q14831)
- Sequence (Q14831 whole entry): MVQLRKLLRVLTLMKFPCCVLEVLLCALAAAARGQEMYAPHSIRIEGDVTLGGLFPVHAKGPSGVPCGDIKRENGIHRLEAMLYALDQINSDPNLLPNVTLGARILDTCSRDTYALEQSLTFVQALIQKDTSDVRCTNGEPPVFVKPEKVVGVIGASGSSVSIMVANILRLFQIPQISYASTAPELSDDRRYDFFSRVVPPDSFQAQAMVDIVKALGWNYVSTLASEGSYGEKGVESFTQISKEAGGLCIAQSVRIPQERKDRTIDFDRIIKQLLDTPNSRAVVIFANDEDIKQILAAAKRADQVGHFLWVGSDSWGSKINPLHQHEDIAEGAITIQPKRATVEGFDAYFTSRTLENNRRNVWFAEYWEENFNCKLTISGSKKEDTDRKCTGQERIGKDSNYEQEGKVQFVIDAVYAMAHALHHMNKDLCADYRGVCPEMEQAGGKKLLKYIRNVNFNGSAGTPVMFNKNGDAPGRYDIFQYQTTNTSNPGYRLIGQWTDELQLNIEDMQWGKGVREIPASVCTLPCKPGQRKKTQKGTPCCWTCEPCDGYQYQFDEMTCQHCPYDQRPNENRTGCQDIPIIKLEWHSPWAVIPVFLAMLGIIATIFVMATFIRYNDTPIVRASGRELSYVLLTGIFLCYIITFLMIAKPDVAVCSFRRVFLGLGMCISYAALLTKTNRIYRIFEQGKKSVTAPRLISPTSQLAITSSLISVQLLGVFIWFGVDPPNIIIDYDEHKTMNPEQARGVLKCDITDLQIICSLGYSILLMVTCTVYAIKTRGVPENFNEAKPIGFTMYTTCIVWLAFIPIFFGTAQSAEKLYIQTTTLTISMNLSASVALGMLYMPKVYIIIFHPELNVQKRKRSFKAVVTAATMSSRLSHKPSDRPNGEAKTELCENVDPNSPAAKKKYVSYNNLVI
- EXPERIMENT: Agonist activity at mGlu7 (unknown origin) expressed in HEK293 cells coexpressing chimeric Gq/i protein assessed as [3H]inositol phosphate accumulation after 30 mins by scintillation and luminescence counting method
- Format: functional, cell-based
Strictly below 300 µM in EC50: MET. Otherwise: NOT MET.

Please indicate whether the reported EC50 of N[C@@H](CCP(=O)(O)C(O)c1ccc([N+](=O)[O-])o1)C(=O)O (stereo not given in full) is strictly below 300 µM.
NOT MET

Please indicate whether the reported EC50 of N[C@@H](CCP(=O)(O)O)C(=O)O is strictly below 300 µM.
NOT MET

Please indicate whether the reported EC50 of N[C@@]1(C(=O)O)C[C@H](C(=O)O)[C@H](C(=O)O)C1 is strictly below 300 µM.
MET

Please indicate whether the reported EC50 of N[C@@H](CCP(=O)(O)C(O)c1csc([N+](=O)[O-])c1)C(=O)O (stereo not given in full) is strictly below 300 µM.
NOT MET

Please indicate whether the reported EC50 of N[C@@H](CCP(=O)(O)C(O)c1ccc(C(=O)O)cc1)C(=O)O (stereo not given in full) is strictly below 300 µM.
MET

###

- TGT: Metabotropic glutamate receptor 8 (Homo sapiens, UniProt O00222)
- Sequence (O00222 whole entry): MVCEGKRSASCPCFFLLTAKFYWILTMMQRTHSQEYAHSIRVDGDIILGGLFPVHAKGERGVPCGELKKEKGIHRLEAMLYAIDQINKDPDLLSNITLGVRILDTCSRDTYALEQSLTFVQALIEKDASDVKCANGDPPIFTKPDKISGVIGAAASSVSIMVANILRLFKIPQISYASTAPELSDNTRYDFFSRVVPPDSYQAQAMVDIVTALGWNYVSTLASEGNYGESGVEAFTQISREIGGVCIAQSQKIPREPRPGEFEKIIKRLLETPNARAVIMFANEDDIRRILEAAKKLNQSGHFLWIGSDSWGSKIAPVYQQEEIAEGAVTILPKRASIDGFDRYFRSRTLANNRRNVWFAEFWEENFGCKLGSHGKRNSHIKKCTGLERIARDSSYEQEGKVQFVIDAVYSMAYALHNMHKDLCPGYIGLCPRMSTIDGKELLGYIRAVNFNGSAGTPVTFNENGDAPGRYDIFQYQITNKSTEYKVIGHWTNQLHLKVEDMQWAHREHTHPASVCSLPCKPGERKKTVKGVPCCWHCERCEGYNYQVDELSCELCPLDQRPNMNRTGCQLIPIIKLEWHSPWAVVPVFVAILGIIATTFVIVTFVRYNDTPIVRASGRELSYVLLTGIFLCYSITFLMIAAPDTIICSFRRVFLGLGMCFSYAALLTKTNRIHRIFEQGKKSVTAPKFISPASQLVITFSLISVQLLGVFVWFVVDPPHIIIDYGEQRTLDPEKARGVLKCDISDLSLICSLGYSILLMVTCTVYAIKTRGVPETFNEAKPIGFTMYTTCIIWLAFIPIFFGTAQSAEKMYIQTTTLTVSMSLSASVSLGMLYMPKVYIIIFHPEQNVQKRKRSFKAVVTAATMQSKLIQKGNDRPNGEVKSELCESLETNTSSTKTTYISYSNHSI
- EXPERIMENT: Agonist activity at mGlu8 (unknown origin) expressed in HEK293 cells coexpressing chimeric Gq/i protein assessed as increase in intracellular calcium accumulation by Fluo-4 AM dye based fluorescence assay
- Format: functional, cell-based
pEC50: −log10 of the molar value.
Label Y for high-side pEC50 (at or above 5) and N for low-side pEC50 (below it).

Answer whether pEC50 of N[C@@H](CCP(=O)(O)[C@H](O)c1cccc([N+](=O)[O-])c1)C(=O)O is greater than or equal to 5.
Y

Answer whether pEC50 of N[C@@H](CCP(=O)(O)C(NCc1ccccc1)c1cccc([N+](=O)[O-])c1)C(=O)O (stereo not given in full) is greater than or equal to 5.
N

Answer whether pEC50 of N[C@@H](CCP(=O)(O)[C@@H](O)c1ccc(O)c([N+](=O)[O-])c1)C(=O)O is greater than or equal to 5.
N

Answer whether pEC50 of N[C@H](C(=O)O)c1ccc(C(=O)O)c(C(=O)O)c1 is greater than or equal to 5.
Y

Answer whether pEC50 of N[C@@H](CCP(=O)(O)C(O)c1ccc(O)nc1)C(=O)O (stereo not given in full) is greater than or equal to 5.
N

Answer whether pEC50 of CCOc1cc([C@@H](O)P(=O)(O)CC[C@H](N)C(=O)O)cc([N+](=O)[O-])c1O is greater than or equal to 5.
N

Answer whether pEC50 of N[C@@H](CCP(=O)(O)CCC(=O)O)C(=O)O is greater than or equal to 5.
Y

Answer whether pEC50 of N[C@@H](CCP(=O)(O)C(O)c1c[nH]c2ncccc12)C(=O)O (stereo not given in full) is greater than or equal to 5.
Y

Answer whether pEC50 of N[C@@H](CCP(=O)(O)C(O)c1ccc([N+](=O)[O-])cc1)C(=O)O (stereo not given in full) is greater than or equal to 5.
Y

###

- TGT: Metabotropic glutamate receptor 6 (Homo sapiens)
- Sequence (O15303 whole entry): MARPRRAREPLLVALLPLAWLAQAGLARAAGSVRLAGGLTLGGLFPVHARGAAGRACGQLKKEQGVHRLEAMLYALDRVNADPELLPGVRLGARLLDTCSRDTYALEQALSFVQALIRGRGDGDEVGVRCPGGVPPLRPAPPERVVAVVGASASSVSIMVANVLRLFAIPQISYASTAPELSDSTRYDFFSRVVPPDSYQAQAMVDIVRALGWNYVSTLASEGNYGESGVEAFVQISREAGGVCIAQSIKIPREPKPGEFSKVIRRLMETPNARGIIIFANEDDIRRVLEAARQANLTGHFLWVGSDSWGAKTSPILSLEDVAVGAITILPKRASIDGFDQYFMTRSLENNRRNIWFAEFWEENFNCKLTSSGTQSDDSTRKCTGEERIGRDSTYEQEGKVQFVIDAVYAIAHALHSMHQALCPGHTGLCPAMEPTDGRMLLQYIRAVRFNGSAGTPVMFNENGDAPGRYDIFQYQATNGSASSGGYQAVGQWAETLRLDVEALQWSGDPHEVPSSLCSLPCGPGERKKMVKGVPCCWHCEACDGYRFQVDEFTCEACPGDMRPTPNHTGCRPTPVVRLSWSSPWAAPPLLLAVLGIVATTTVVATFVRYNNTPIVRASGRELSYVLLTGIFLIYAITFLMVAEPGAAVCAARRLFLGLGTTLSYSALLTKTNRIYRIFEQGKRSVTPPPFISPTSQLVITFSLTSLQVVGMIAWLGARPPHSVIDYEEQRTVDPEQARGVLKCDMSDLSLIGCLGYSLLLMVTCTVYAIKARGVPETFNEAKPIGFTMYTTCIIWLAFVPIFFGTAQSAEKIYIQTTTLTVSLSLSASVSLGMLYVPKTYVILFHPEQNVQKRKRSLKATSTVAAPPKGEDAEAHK
- EXPERIMENT: Agonist activity at mGlu6 (unknown origin) expressed in HEK293 cells coexpressing chimeric Gq/i protein assessed as increase in intracellular calcium accumulation by Fluo-4 AM dye based fluorescence assay
- Format: functional, cell-based
Strictly below 4 µM in EC50: satisfied. Otherwise: not satisfied.

Please indicate whether the reported EC50 of N[C@@H](CCP(=O)(O)[C@H](O)c1cc(F)c(O)c([N+](=O)[O-])c1)C(=O)O is strictly below 4 µM.
satisfied

Please indicate whether the reported EC50 of COc1ccc(C(O)P(=O)(O)CC[C@H](N)C(=O)O)cc1 (stereo not given in full) is strictly below 4 µM.
not satisfied

Please indicate whether the reported EC50 of N[C@@H](CCP(=O)(O)O)C(=O)O is strictly below 4 µM.
satisfied

Please indicate whether the reported EC50 of N[C@@H](CCP(=O)(O)C(O)c1ccc([N+](=O)[O-])cc1)C(=O)O (stereo not given in full) is strictly below 4 µM.
not satisfied

Please indicate whether the reported EC50 of N[C@@H](CCP(=O)(O)[C@H](O)c1ccc(O)c([N+](=O)[O-])c1)C(=O)O is strictly below 4 µM.
satisfied

Please indicate whether the reported EC50 of N[C@@H](CCP(=O)(O)[C@@H](O)c1cccc([N+](=O)[O-])c1)C(=O)O is strictly below 4 µM.
satisfied

Please indicate whether the reported EC50 of Nc1ncc(C(O)P(=O)(O)CC[C@H](N)C(=O)O)s1 (stereo not given in full) is strictly below 4 µM.
not satisfied

Please indicate whether the reported EC50 of N[C@@H](CCP(=O)(O)C(O)c1ccc(Cl)c([N+](=O)[O-])c1)C(=O)O (stereo not given in full) is strictly below 4 µM.
not satisfied

Please indicate whether the reported EC50 of N[C@@H](CCP(=O)(O)C(O)c1ccc(C(F)(F)F)c([N+](=O)[O-])c1)C(=O)O (stereo not given in full) is strictly below 4 µM.
not satisfied

Please indicate whether the reported EC50 of N[C@@H](CCP(=O)(O)Cc1ccc(O)c([N+](=O)[O-])c1)C(=O)O is strictly below 4 µM.
not satisfied

Please indicate whether the reported EC50 of COc1ccc([C@@H](O)P(=O)(O)CC[C@H](N)C(=O)O)cc1[N+](=O)[O-] is strictly below 4 µM.
not satisfied

Please indicate whether the reported EC50 of N[C@@H](CCP(=O)(O)[C@H](O)c1cccc([N+](=O)[O-])c1)C(=O)O is strictly below 4 µM.
satisfied

Please indicate whether the reported EC50 of N[C@@H](CCP(=O)(O)Cc1cccc([N+](=O)[O-])c1)C(=O)O is strictly below 4 µM.
satisfied

Please indicate whether the reported EC50 of N[C@@H](CCP(=O)(O)C(O)c1ccc([N+](=O)[O-])c(C(F)(F)F)c1)C(=O)O (stereo not given in full) is strictly below 4 µM.
satisfied

Please indicate whether the reported EC50 of N[C@@H](CCP(=O)(O)C(O)c1cc(O)c(O)c([N+](=O)[O-])c1)C(=O)O (stereo not given in full) is strictly below 4 µM.
not satisfied

Please indicate whether the reported EC50 of N[C@@H](CCP(=O)(O)C(O)c1ccc([N+](=O)[O-])s1)C(=O)O (stereo not given in full) is strictly below 4 µM.
not satisfied

Please indicate whether the reported EC50 of CS(=O)(=O)c1ccc(C(O)P(=O)(O)CC[C@H](N)C(=O)O)cc1 (stereo not given in full) is strictly below 4 µM.
not satisfied

Please indicate whether the reported EC50 of N[C@@H](CCP(=O)(O)C(O)c1ccc(N2CCOCC2)c([N+](=O)[O-])c1)C(=O)O (stereo not given in full) is strictly below 4 µM.
not satisfied

Please indicate whether the reported EC50 of N[C@@H](CCP(=O)(O)[C@@H](O)c1cc(F)c(O)c([N+](=O)[O-])c1)C(=O)O is strictly below 4 µM.
not satisfied

Please indicate whether the reported EC50 of N[C@@H](CCP(=O)(O)C(O)c1cc(F)c(O)c([N+](=O)[O-])c1)C(=O)O (stereo not given in full) is strictly below 4 µM.
satisfied

Please indicate whether the reported EC50 of N[C@@H](CCP(=O)(O)CCC(=O)O)C(=O)O is strictly below 4 µM.
not satisfied

Please indicate whether the reported EC50 of COc1cc([C@H](O)P(=O)(O)CC[C@H](N)C(=O)O)cc([N+](=O)[O-])c1O is strictly below 4 µM.
satisfied

Please indicate whether the reported EC50 of COc1cc([C@@H](O)P(=O)(O)CC[C@H](N)C(=O)O)cc([N+](=O)[O-])c1O is strictly below 4 µM.
satisfied

Please indicate whether the reported EC50 of N[C@@H](CCP(=O)(O)[C@@H](O)c1ccc(O)c([N+](=O)[O-])c1)C(=O)O is strictly below 4 µM.
not satisfied

Please indicate whether the reported EC50 of N[C@@H](CCP(=O)(O)C(O)c1c(F)c(F)c(F)c(F)c1F)C(=O)O (stereo not given in full) is strictly below 4 µM.
not satisfied

Please indicate whether the reported EC50 of COc1cc(C(N)P(=O)(O)CC[C@H](N)C(=O)O)cc([N+](=O)[O-])c1O (stereo not given in full) is strictly below 4 µM.
not satisfied

###

- TGT: Metabotropic glutamate receptor 4 (Homo sapiens, UniProt Q14833)
- Sequence (Q14833 whole entry): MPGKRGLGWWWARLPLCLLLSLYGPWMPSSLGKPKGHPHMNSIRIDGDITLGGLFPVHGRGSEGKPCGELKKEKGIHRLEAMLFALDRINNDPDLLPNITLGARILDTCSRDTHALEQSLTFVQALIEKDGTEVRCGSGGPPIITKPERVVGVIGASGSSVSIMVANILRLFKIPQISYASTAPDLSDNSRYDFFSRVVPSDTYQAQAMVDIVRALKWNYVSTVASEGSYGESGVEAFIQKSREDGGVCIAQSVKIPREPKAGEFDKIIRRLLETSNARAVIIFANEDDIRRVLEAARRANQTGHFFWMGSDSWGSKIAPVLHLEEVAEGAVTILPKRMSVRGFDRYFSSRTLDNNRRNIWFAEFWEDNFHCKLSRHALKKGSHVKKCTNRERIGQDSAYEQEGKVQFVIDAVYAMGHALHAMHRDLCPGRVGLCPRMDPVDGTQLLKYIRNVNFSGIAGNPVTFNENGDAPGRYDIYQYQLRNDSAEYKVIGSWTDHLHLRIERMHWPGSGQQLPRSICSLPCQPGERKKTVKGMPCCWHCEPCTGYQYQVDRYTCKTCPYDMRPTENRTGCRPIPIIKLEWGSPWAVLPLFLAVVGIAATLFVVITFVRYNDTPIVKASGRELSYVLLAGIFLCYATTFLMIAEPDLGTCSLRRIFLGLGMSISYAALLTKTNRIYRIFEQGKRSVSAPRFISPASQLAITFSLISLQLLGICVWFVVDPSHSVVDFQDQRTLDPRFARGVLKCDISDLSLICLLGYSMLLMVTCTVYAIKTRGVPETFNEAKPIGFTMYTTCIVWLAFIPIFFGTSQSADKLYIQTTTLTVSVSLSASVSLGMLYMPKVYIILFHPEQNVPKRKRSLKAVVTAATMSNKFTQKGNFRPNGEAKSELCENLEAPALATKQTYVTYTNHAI
- EXPERIMENT: Agonist activity at mGlu4 (unknown origin) expressed in HEK293 cells coexpressing chimeric Gq/i protein assessed as increase in intracellular calcium accumulation by Fluo-4 AM dye based fluorescence assay
pEC50: −log10 of the molar value.
Label yes (1) for high-side pEC50 (at or above 5) and no (0) for low-side pEC50 (below it).

Answer whether pEC50 of COc1ccc([C@H](O)P(=O)(O)CC[C@H](N)C(=O)O)cc1[N+](=O)[O-] is greater than or equal to 5.
yes (1)

Answer whether pEC50 of N[C@@H](CCP(=O)(O)Cc1ccc(O)c([N+](=O)[O-])c1)C(=O)O is greater than or equal to 5.
no (0)

Answer whether pEC50 of N[C@@H](CCP(=O)(O)C(O)c1ccc(O)c([N+](=O)[O-])c1)C(=O)O (some centres undefined) is greater than or equal to 5.
yes (1)

Answer whether pEC50 of N[C@@H](CCP(=O)(O)C(O)c1ccc(C(F)(F)F)c([N+](=O)[O-])c1)C(=O)O (some centres undefined) is greater than or equal to 5.
yes (1)

Answer whether pEC50 of N[C@@H](CCP(=O)(O)Cc1cccc(C(=O)O)c1)C(=O)O is greater than or equal to 5.
no (0)

Answer whether pEC50 of N[C@@H](CCP(=O)(O)C(NCCc1ccccc1)c1cccc([N+](=O)[O-])c1)C(=O)O (some centres undefined) is greater than or equal to 5.
yes (1)

Answer whether pEC50 of N[C@@H](CCP(=O)(O)C(O)c1ccc(F)c([N+](=O)[O-])c1)C(=O)O (some centres undefined) is greater than or equal to 5.
yes (1)
